These entries and their values trace back to paper PMC12080252.

# TEST_NAME: Bioaccumulation test (growth, uptake, depuration; adapted from OECD 305) with passive dosing
# Format: in vivo, Daphnia magna
# TEST_CONDITIONS: Daphnia magna, whole body (homogenate, wet weight); concentration in animal body at end of uptake phase (t = 120 h); read-out: Body burden
QUANTITY_MEASURED: concentration at 120 h (ng/g)
Form entry: value (ng/g) — number only.

// solved cases for concentration at 120 h follow
MOLECULE | UNIT_STRING | VALUE_MEASURED
c1ccc2c(c1)ccc1sc3ccccc3c12 [BNT, benzo[b]naphtho[1,2-d]thiophene] | ng/g | 29400
c1ccc2c(c1)ccc1oc3ccc4ccccc4c3c12 [DNF, dinaphtho[2,1-b:1′,2′-d]furan] | ng/g | 176
c1ccc2c(c1)ccc1oc3ccccc3c12 [BNF, benzo[b]naphtho[1,2-d]furan] | ng/g | 2580

Please examine the following record next.
Recorded concentration at 120 h for c1ccc2c(c1)ccc1[nH]c3ccccc3c12 [BCRB, 7H-benzo[c]carbazole] , please? 25600
